// compounds with Ki on Orexin receptor type 2 (Homo sapiens, UniProt O43614), multi-source literature
recorded metric: Ki (nM)

# compound, recorded metric, operator symbol, experimental result
rows = [
    ("Cc1cccc(C(=O)N2CCC[C@@H](Oc3ncc(C(F)(F)F)cc3F)[C@@H]2C)c1-c1ncccn1", "Ki", "=", 393),
    ("Cc1cc(N[C@@H]2CCCN(C(=O)c3cc(F)ccc3-c3ncccn3)[C@H]2C)nc(C(F)(F)F)n1 (racemic)", "Ki", "=", 2260),
    ("Cc1ccc(-n2nccn2)c(C(=O)N2CC(COc3ccc(F)c(C)c3)COCC2C)c1 (stereo not drawn)", "Ki", "=", 8.7),
    ("COc1ccc(C(=O)N2CCC[C@@H](Nc3ccc(C(F)(F)F)cn3)[C@@H]2C)c(-n2nccn2)c1", "Ki", "=", 4900),
    ("COC[C@@H]1[C@@H]2CC[C@@H]([C@H](Oc3ccc(C(F)(F)F)cn3)C2)N1C(=O)c1ccccc1-c1ncccn1", "Ki", ">", 10000),
    ("Cc1cc(C)nc(N2CC3CN(C(=O)c4c(F)cccc4-c4[nH]ncc4C(F)(F)F)CC3C2)n1 (stereo not drawn)", "Ki", "=", 49),
    ("C[C@H]1[C@H](Nc2ccc(C(F)(F)F)cn2)CCCN1C(=O)c1ccc(F)cc1-c1ncccn1 (relative stereo)", "Ki", "=", 421),
    ("Cc1ccnc(-c2cccc(F)c2C(=O)N2CC3CN(c4nc(C)cc(C)n4)CC3C2)c1 (stereo not drawn)", "Ki", "=", 45),
    ("C[C@@H]1CC[C@@H](C#Cc2ccncc2)CN1C(=O)c1ccccc1-n1nccn1", "Ki", "=", 41),
    ("C[C@@H]1[C@H]2C[C@@H](Oc3cnc(C(F)(F)F)cn3)[C@H](C2)N1C(=O)c1cc(F)ccc1-n1nccn1 (relative stereo)", "Ki", "=", 3400),
    ("CC1C2CC(Oc3ccc(C(F)(F)F)cn3)C(C2)N1C(=O)c1cccc(F)c1-c1ncc(F)cn1 (racemic)", "Ki", "=", 3100),
    ("C[C@H]1[C@H](Oc2ccc(C(F)(F)F)cn2)CCCN1C(=O)c1ccccc1-c1ncc(F)cn1", "Ki", "=", 676),
]

* * *

Below, pKi values reported for Orexin receptor type 2 (Homo sapiens) across several publications.
pKi: −log10 of the molar value.
Classification field: enter Yes for pKi values not below 6, No for values below it.

# compound, system, label value
rows = [
    ("C[C@@H]1[C@H]2C[C@@H](Oc3ccc(C(F)(F)F)cn3)[C@H](C2)N1C(=O)c1cc2ccccc2nc1OCCO", "Orexin receptor type 2 (Homo sapiens)", "No"),
    ("CC1CCCC(COc2ccc(F)cn2)CN1C(=O)c1ccccc1-n1nccn1 (centres unmarked)", "Orexin receptor type 2 (Homo sapiens)", "Yes"),
    ("C[C@H]1[C@H](Nc2cnc(C(F)(F)F)cn2)CCCN1C(=O)c1cccc(F)c1-c1ncccn1 (relative stereo)", "Orexin receptor type 2 (Homo sapiens)", "Yes"),
    ("O=C(c1cc(F)ccc1-c1ncc(F)cn1)N1[C@H](CO)[C@@H]2CC[C@H]1[C@H](Oc1ccc(C(F)(F)F)cn1)C2", "Orexin receptor type 2 (Homo sapiens)", "No"),
    ("Cc1ccc(-c2ncccn2)c(C(=O)N2[C@H](C)[C@H]3C[C@@H](Oc4ccc(C(F)F)cn4)[C@@H]2C3)n1", "Orexin receptor type 2 (Homo sapiens)", "Yes"),
    ("Cc1ccc(-n2nccn2)c(C(=O)N2[C@H](C)[C@H]3C[C@@H](Oc4cnc5cc(F)c(F)cc5n4)[C@@H]2C3)n1 (relative stereo)", "Orexin receptor type 2 (Homo sapiens)", "Yes"),
    ("C[C@@H]1CC[C@@H](Oc2cc(C#N)ccn2)CN1C(=O)c1nscc1-n1nccn1", "Orexin receptor type 2 (Homo sapiens)", "Yes"),
    ("O=C(c1cc(F)ccc1-n1nccn1)N1[C@H](CF)[C@@H]2CC[C@H]1[C@H](Oc1ccc(C(F)(F)F)cn1)C2", "Orexin receptor type 2 (Homo sapiens)", "No"),
    ("Cc1ccc(-n2nccn2)c(C(=O)N2CCCCC2C#Cc2cnc3ccccc3c2)c1 (centres unmarked)", "Orexin receptor type 2 (Homo sapiens)", "No"),
    ("Cc1ccc(-n2nccn2)c(C(=O)N2CCCCC2C#Cc2ccccc2)c1 (centres unmarked)", "Orexin receptor type 2 (Homo sapiens)", "Yes"),
    ("Cc1ccc(C(=O)N2CCC[C@@H](N(C)c3ccc(C(F)(F)F)cn3)[C@@H]2C)c(-n2nccn2)n1 (relative stereo)", "Orexin receptor type 2 (Homo sapiens)", "No"),
    ("COc1ccc(C(=O)N2CCC[C@@H](Oc3cnc(C(F)(F)F)cn3)[C@@H]2C)c(-n2nccn2)c1", "Orexin receptor type 2 (Homo sapiens)", "No"),
    ("Cc1ccc(-n2nccn2)c(C(=O)N2C[C@H](COc3ncccc3C)OC[C@H]2C)c1", "Orexin receptor type 2 (Homo sapiens)", "Yes"),
    ("COc1ccc(C(=O)N2[C@H](C)[C@H]3C[C@@H](Oc4cnc(C(F)(F)F)cn4)[C@@H]2C3)c(-n2nccn2)c1 (relative stereo)", "Orexin receptor type 2 (Homo sapiens)", "No"),
    ("Cc1cnc(-n2nccn2)c(C(=O)N2CCC[C@@H](Oc3ncc(C(F)(F)F)cn3)[C@@H]2C)c1", "Orexin receptor type 2 (Homo sapiens)", "No"),
    ("C[C@@H]1[C@H]2C[C@@H](Oc3ccc(C(F)(F)F)cn3)[C@H](C2)N1C(=O)c1ccccc1-c1cnc(F)cn1", "Orexin receptor type 2 (Homo sapiens)", "No"),
    ("Cc1cccc(C(=O)N2CC3CN(c4cnc5cc(F)c(F)cc5n4)CC3C2)c1-n1nccn1 (centres unmarked)", "Orexin receptor type 2 (Homo sapiens)", "Yes"),
    ("Cc1cnc(C(=O)N2CCC[C@@H](Oc3ccc(C(F)(F)F)cn3)[C@@H]2C)c(-n2nccn2)c1", "Orexin receptor type 2 (Homo sapiens)", "No"),
    ("COc1ncc(-c2cccc(F)c2C(=O)N2CC3CN(c4nc(C)cc(C)n4)CC3C2)s1 (centres unmarked)", "Orexin receptor type 2 (Homo sapiens)", "Yes"),
    ("Cc1cnc(C(=O)N2C(C)C3CC(Nc4ccc(C(F)(F)F)cn4)C2C3)c(-n2nccn2)c1 (racemic)", "Orexin receptor type 2 (Homo sapiens)", "Yes"),
    ("Cc1cccc(C(=O)N2CCC[C@@H](Oc3ncc(C(F)(F)F)cc3F)[C@@H]2C)c1-n1nccn1", "Orexin receptor type 2 (Homo sapiens)", "Yes"),
    ("C[C@@H]1[C@H]2C[C@@H](Oc3ccc(C(F)(F)F)cn3)[C@H](C2)N1C(=O)c1cc(OCCBr)ccc1-n1nccn1", "Orexin receptor type 2 (Homo sapiens)", "Yes"),
    ("Cc1cc(C)nc(N2CC3CN(C(=O)c4c(F)cccc4-c4ncc(C)s4)CC3C2)n1 (centres unmarked)", "Orexin receptor type 2 (Homo sapiens)", "Yes"),
    ("Cc1cc(C)nc(N2CC3CN(C(=O)c4cccc5c4OCC5)CC3C2)n1 (centres unmarked)", "Orexin receptor type 2 (Homo sapiens)", "No"),
    ("Cc1ccc(-n2nccn2)c(C(=O)N2CCCCC2C#Cc2ccc(F)cc2)c1 (centres unmarked)", "Orexin receptor type 2 (Homo sapiens)", "Yes"),
]

* * *

Multi-source literature compilation: Ki on Orexin receptor type 2 (Homo sapiens, UniProt O43614).

# compound, Ki [µM]
measured = [
    ("COc1cccnc1-c1c(F)cccc1C(=O)N1CC2CN(c3cnc4cc(F)c(F)cc4n3)CC2C1 (stereo not shown)", 0.047),
    ("Cc1cnc(C(=O)N2CCC[C@@H](Nc3ccc(C(F)(F)F)cn3)[C@@H]2C)c(-n2nccn2)c1", 2.37),
    ("Cc1ccc(C(=O)N2CCC[C@@H](Oc3cnc(C(F)(F)F)cn3)[C@@H]2C)c(-n2nccn2)c1", 3.9),
    ("Cc1cnc(C(=O)N2C(C)C3CC(Nc4ccc(C(F)(F)F)cn4)C2C3)c(-c2ncccn2)c1 (racemic)", 4.1),
]

* * *

Here, compounds appear alongside Ki reported for Orexin receptor type 2 (Homo sapiens, UniProt O43614) in the literature.

# compound, Ki
data = [
    ("C[C@H]1[C@H](Oc2ncc(C(F)(F)F)cc2F)CCCN1C(=O)c1ccccc1-c1ncccn1", "0.526 µM"),
    ("CC1C2CC(Oc3ccc(C(F)(F)F)cn3)C(C2)N1C(=O)c1ncccc1-c1ncccn1 (racemic)", "3.7 µM"),
    ("Cc1cnc(C(=O)N2C(C)C3CC(Oc4ccc(C(F)(F)F)cn4)C2C3)c(-n2nccn2)c1 (racemic)", "2.1 µM"),
    ("C[C@H]1[C@H](Nc2ncc(C(F)(F)F)cn2)CCCN1C(=O)c1cccc(F)c1-c1ncccn1 (relative stereo)", "0.985 µM"),
    ("C[C@@H]1CC[C@@H](C#Cc2cncc(CO)c2)CN1C(=O)c1ccccc1-n1nccn1", "0.032 µM"),
    ("COc1ccc(C(=O)N2CCC[C@@H](Nc3ncc(C(F)(F)F)cn3)[C@@H]2C)c(Cl)n1 (relative stereo)", "> 10 µM"),
    ("Cc1cc(C)nc(N2CC3CN(C(=O)c4nc(C)ccc4-n4ccnn4)CC3C2)n1 (stereo not shown)", "10 µM"),
]
